Measured values drawn from ChEMBL document CHEMBL1127310 for this set.

TD50 by entry:
- Species on record: Mus musculus
- PROTOCOL_SUMMARY: Median neurologically impairing dose was determined in mice using the rotarod test
- Assay type: functional
REPORTED_METRIC: TD50 (mg/kg)

COMPOUND	REPORTED_METRIC	CENSORING_SIGN	DATA_VALUE
CC(=O)NC(C(=O)NCc1ccccc1)c1ncco1 (stereo unspecified)	TD50	=	38.6
CC(=O)NC(C(=O)NCc1ccccc1)c1ccccn1 (stereo unspecified)	TD50	<	100
CC(=O)NC(C(=O)NCc1ccccc1)c1cccs1 (stereo unspecified)	TD50	<	100
CC(=O)NC(C(=O)NCc1ccccc1)c1ccccc1 (stereo unspecified)	TD50	>	40
CC(=O)NC(C(=O)NCc1ccccc1)c1ccc[nH]1 (stereo unspecified)	TD50	<	100
CC(=O)NC(C(=O)NCc1ccccc1)c1ncccn1 (stereo unspecified)	TD50	=	56.7
CCC1(c2ccccc2)C(=O)NC(=O)NC1=O [PHENOBARBITAL]	TD50	=	69
CC(=O)NC(C(=O)NCc1ccccc1)c1cnccn1 (stereo unspecified)	TD50	=	58.2
CC(=O)NC(C(=O)NCc1ccccc1)c1nccs1 (stereo unspecified)	TD50	=	69.1
CC(=O)NC(C(=O)NCc1ccccc1)c1ccsc1 (stereo unspecified)	TD50	<	100
